Entries and their measured IC50, inhibition of HMC-1 IL8 production promoted by IL33 follow.
- TEST TARGET: T1, ST2 on the effector cells (KU812, KU812/NF-κB-1#, HUVEC, HMC-1) (human, UniProt Q01638 19-556)
- T1 sequence (looked up): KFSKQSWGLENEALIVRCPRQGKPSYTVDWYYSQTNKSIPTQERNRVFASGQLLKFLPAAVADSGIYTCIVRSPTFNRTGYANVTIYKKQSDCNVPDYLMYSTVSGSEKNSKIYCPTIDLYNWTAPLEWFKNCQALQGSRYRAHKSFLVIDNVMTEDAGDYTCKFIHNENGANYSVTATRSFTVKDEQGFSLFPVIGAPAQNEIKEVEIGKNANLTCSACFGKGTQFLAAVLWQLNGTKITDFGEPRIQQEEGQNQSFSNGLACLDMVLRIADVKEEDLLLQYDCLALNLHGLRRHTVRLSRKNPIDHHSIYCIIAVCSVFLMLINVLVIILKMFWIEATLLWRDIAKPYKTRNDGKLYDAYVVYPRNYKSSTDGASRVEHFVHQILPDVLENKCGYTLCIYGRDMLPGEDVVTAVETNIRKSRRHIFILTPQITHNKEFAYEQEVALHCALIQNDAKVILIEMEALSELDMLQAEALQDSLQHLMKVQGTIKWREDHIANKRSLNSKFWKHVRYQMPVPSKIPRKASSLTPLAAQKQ
- EXPERIMENT NOTES: cell-based or functional assay
PROPERTY: IC50, inhibition of HMC-1 IL8 production promoted by IL33

{"BINDER": "5888-379-H2L1 (antibody, human IgG4 S228P, kappa, V domains shown, Humanized antibody) VH: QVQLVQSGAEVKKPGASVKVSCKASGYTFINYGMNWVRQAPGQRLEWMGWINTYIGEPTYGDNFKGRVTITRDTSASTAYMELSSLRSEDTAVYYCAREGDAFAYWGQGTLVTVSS VL: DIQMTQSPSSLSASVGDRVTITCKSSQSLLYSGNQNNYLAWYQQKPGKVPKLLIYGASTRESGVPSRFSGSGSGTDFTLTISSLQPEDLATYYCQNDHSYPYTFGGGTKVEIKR", "READING": "0.23 µg/mL"}
{"BINDER": "Control antibody CNTO7160 (antibody, human IgG4 S228P, kappa, V domains shown, Known anti-ST2 control antibody) VH: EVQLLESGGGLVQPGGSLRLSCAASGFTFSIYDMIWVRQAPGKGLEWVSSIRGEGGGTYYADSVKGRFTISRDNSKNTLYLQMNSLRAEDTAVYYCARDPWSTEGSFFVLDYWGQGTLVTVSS VL: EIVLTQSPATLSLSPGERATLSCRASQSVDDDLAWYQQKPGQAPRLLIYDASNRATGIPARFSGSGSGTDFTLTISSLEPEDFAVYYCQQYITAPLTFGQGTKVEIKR", "READING": "0.101 µg/mL"}
{"BINDER": "5888-379-H1L0 (antibody, human IgG4 S228P, kappa, V domains shown, Humanized antibody) VH: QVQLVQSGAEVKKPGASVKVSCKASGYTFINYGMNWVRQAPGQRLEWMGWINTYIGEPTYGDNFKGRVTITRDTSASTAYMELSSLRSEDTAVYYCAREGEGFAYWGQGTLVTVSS VL: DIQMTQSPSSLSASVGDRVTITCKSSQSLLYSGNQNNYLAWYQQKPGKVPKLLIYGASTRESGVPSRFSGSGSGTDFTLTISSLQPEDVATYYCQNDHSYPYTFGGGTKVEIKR", "READING": "0.334 µg/mL"}
